Biological target: BTK (Homo sapiens)
Sequence (Q06187 whole entry): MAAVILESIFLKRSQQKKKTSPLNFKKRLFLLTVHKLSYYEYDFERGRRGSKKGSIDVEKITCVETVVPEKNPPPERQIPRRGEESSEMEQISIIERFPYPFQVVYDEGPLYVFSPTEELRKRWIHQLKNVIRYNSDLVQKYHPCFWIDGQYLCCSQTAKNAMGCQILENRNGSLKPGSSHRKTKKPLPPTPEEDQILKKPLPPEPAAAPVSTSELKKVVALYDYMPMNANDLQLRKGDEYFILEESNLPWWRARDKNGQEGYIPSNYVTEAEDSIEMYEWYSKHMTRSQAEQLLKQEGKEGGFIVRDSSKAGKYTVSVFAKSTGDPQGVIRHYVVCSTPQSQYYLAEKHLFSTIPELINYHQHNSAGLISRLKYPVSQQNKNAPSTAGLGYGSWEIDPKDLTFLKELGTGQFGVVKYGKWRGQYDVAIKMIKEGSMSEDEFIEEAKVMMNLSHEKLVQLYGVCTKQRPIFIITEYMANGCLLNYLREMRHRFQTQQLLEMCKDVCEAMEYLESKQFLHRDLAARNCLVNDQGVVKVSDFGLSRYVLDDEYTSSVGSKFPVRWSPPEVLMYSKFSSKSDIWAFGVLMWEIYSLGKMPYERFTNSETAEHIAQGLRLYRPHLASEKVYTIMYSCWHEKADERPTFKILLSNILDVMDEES
Assay: BTK degradation, DC50 and Dmax of Table 1 (cell line not given)
Assay type: cell-based
Set-up: endogenous in cells
Settings: concentration giving 50% reduction of BTK expression level
# DC50 annotations

Solved entries:
-- ask Identify measured DC50 corresponding to Nc1ncnc2c1c(-c1ccc(Oc3ccccc3)cc1)nn2[C@@H]1CCCN(C(=O)N2CCC(CC3CCN(c4ccc5c(c4)CN(C4CCC(=O)NC4=O)C5=O)CC3)CC2)C1 (some centres unmarked) [Compound 60]
-- reply < 10 nM

-- ask Identify measured DC50 corresponding to Nc1ncnc2c1c(-c1ccc(Oc3ccccc3)cc1)nn2C1CCN(C(=O)N2CCN(CCC3CCN(c4ccc5c(c4)C(=O)N(C4CCC(=O)NC4=O)C5=O)CC3)CC2)CC1 (centres unmarked) [Compound 97]
-- reply 10 to 50 nM

Others:
-- ask Identify measured DC50 corresponding to Nc1ncnc2c1c(-c1ccc(Oc3ccccc3)cc1)nn2C1CCN(CCOCCOCCC2CCN(c3ccc4c(c3)CN(C3CCC(=O)NC3=O)C4=O)CC2)CC1 (centres unmarked) [Compound 18]
-- reply < 10 nM

-- ask Identify measured DC50 corresponding to Nc1ncnc2c1c(-c1ccc(Oc3ccccc3)cc1)nn2[C@@H]1CCCN(C2CCN(C(=O)N3CCC(CN4CCN(c5ccc6c(c5)CN(C5CCC(=O)NC5=O)C6=O)CC4)CC3)CC2)C1 (some centres unmarked) [Compound 170]
-- reply 10 to 50 nM

-- ask Identify measured DC50 corresponding to Nc1ncnc2c1c(-c1ccc(Oc3ccccc3)cc1)nn2[C@@H]1CCCN(C2CCN(C(=O)N3CCC(C4CCN(c5ccc6c(c5)CN(C5CCC(=O)NC5=O)C6=O)CC4)CC3)CC2)C1 (some centres unmarked) [Compound 164]
-- reply 10 to 50 nM

###

# Dmax annotations
Target: BTK (Homo sapiens)
Assay: BTK degradation, DC50 and Dmax of Table 1 (cell line not given)
Assay type: cell-based
Design: endogenous in cells

Solved entries:
-- ask Provide BTK (Homo sapiens) Dmax reading for Nc1ncnc2c1c(-c1ccc(Oc3ccccc3)cc1)nn2C1CCCN(CCOCCOCCC2CCN(c3ccc4c(c3)CN(C3CCC(=O)NC3=O)C4=O)CC2)C1 (centres unmarked) .
-- reply > 90%

-- ask Provide BTK (Homo sapiens) Dmax reading for Nc1ncnc2c1c(-c1ccc(Oc3ccccc3)cc1)nn2[C@@H]1CCCN(C2CCN(C(=O)N3CCC(N4CCN(c5ccc6c(c5)CN(C5CCC(=O)NC5=O)C6=O)CC4)CC3)CC2)C1 (some centres unmarked) .
-- reply > 90%

-- ask Provide BTK (Homo sapiens) Dmax reading for Nc1ncnc2c1c(-c1ccc(Oc3ccccc3)cc1)nn2[C@@H]1CCCN(C2CCN(C(=O)N3CCN(c4ccc5c(c4)CN(C4CCC(=O)NC4=O)C5=O)CC3)CC2)C1 (some centres unmarked) .
-- reply > 50%

-- ask Provide BTK (Homo sapiens) Dmax reading for Nc1ncnc2c1c(-c1ccc(Oc3ccccc3)cc1)nn2C1CCN(C(=O)N2CCC(CN3CCN(c4ccc5c(c4)C(=O)N(C4CCC(=O)NC4=O)C5=O)CC3)CC2)CC1 (centres unmarked) .
-- reply > 90%

-- ask Provide BTK (Homo sapiens) Dmax reading for Nc1ncnc2c1c(-c1ccc(Oc3ccccc3)cc1)nn2C1CCN(CCOCCOCCC2CCN(c3ccc4c(c3)C(=O)N(C3CCC(=O)NC3=O)C4=O)CC2)CC1 (centres unmarked) .
-- reply > 90%

Others:
-- ask Provide BTK (Homo sapiens) Dmax reading for Nc1ncnc2c1c(-c1ccc(Oc3ccccc3)cc1)nn2[C@@H]1CCCN(C2CCN(C(=O)N3CCC(CCN4CCC(c5ccc6c(c5)CN(C5CCC(=O)NC5=O)C6=O)CC4)CC3)CC2)C1 (some centres unmarked) .
-- reply > 90%
